Here, each record is paired with measured protein stability index data.
B1: TRAF3IP2 (parent)
chain: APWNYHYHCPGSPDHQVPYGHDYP

Variants of: B1
ASSAY_TEXT: protein stability index of a GFP-peptide fusion (GPS, HEK-293T) (PSI 1-6); higher = more stable;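 further: lentivirally expressed fusions sorted by FACS into six bins by GFP to DsRed ratio, PSI derived from sequencing read proportions per bin multiplied by bin number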
MEASUREMENT_SETUP: c terminus: a fixed tail appended
Kindly provide the number alone.

Sample answers from the record:
- ENTRY_SEQUENCE: "APWNYHYHCPGSPDHQMPYGHDYP [V17M]"
  protein stability index: 1.88
- ENTRY_SEQUENCE: "APWNYHYHCPGSPDHQVPYAHDYP [G20A]"
  protein stability index: 2.58
- ENTRY_SEQUENCE: "APWNTHYHCPGSPDHQVPYGHDYP [Y5T]"
  protein stability index: 3.52

# input Quick check: protein stability index of APWNYHYHCPGSPDHQVGYGHDYP [P18G] ?
# output 1.92

# input Quick check: protein stability index of APWNYCYHCPGSPDHQVPYGHDYP [H6C] ?
# output 3.34

# input Quick check: protein stability index of APWNYHYLCPGSPDHQVPYGHDYP [H8L] ?
# output 2.2

# input Quick check: protein stability index of APWNYHYHCPGSPDHQVDYGHDYP [P18D] ?
# output 2.44

# input Quick check: protein stability index of APWNYHHHCPGSPDHQVPYGHDYP [Y7H] ?
# output 3.42

# input Quick check: protein stability index of APWNYHYHCPGSPDHQVPYLHDYP [G20L] ?
# output 1.74
